Where do the numbers come from? From patent US20190359687A1.

TARGET_UNDER_TEST: T1, human glycophorin A on human red blood cells or red blood cell membranes (human, UniProt P02724 20-150)
T1 construct: whole, on cells; also called hRBC; human RBC membranes
T1 sequence (looked up): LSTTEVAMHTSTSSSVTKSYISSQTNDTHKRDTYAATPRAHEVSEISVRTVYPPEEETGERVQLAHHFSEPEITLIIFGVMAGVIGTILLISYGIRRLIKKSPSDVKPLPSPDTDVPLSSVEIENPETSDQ
PROTOCOL_DESCRIPTION: scFv on intact human RBC, unbound scFv by ELISA; 120 min after 200-fold dilution
Listed next: entries and their corresponding percentage of input scFv antibody bound.

[
  {
    "BINDER": "TPP-7790 scFv with C-terminal 6xHIS tag (scFv) scFv: DIQLTQSPSFLSASVGDRVTITCRASSSVRYIYWFQQKPGKAPKLLIYATSFLQSGVPSRFSGSGSGTEYTLTISSLQPEDFATYYCHQRNSFPYTFGQGTKLEIKGGGGSGGGGSGGGGSGGGGSEVQLVQSGAEVKKPGASVKVSCKASGYTFTTYAIHWVRQAPGQGLEWMGYINPSSGYTRYNPKFKHRVTMTRDKSTSTAYMELRSLRSDDTAVYYCWTGTRDYWGQGTTVTVSSHHHHHH",
    "percentage of input scFv antibody bound": "87%"
  },
  {
    "BINDER": "TPP-7778 scFv with C-terminal 6xHIS tag (scFv) scFv: DIQLTQSPSFLSASVGDRVTITCRASSSVRYIYWFQQKPGKAPKLLIYATSTLQSGVPSRFSGSGSGTEYTLTISSLQPEDFATYYCHQRNSFPYTFGQGTKLEIKGGGGSGGGGSGGGGSGGGGSEVQLVQSGAEVKKPGASVKVSCKASGYTFTTYAIHWVRQAPGQGLEWMGYINPSSGYTRYNPKFKHRVTMTRDKSTSTAYMELRSLRSDDTAVYYCQTGTRDYWGQGTTVTVSSHHHHHH",
    "percentage of input scFv antibody bound": "76%"
  },
  {
    "BINDER": "TPP-7793 scFv with C-terminal 6xHIS tag (scFv) scFv: DIQLTQSPSFLSASVGDRVTITCRASSSVSYIYWFQQKPGKAPKLLIYATSTLQSGVPSRFSGSGSGTEYTLTISSLQPEDFATYYCHQRNSFPYTFGQGTKLEIKGGGGSGGGGSGGGGSGGGGSEVQLVQSGAEVKKPGASVKVSCKASGYTFTRYTIHWVRQAPGQGLEWMGYINPSSGYTRYNPKFKGRVTMTRDKSTSTAYMELRSLRSDDTAVYYCWTGTRDYWGQGTTVTVSSHHHHHH",
    "percentage of input scFv antibody bound": "79%"
  },
  {
    "BINDER": "TPP-7797 scFv with C-terminal 6xHIS tag (scFv) scFv: DIQLTQSPSFLSASVGDRVTITCRASSSVRYIYWFQQKPGKAPKLLIYATSFRQSGVPSRFSGSGSGTEYTLTISSLQPEDFATYYCHQRNSFPYTFGQGTKLEIKGGGGSGGGGSGGGGSGGGGSEVQLVQSGAEVKKPGASVKVSCKASGYTFTTYTIHWVRQAPGQGLEWMGYINPSSGYTRYNPKFKGRVTMTRDKSTSTAYMELRSLRSDDTAVYYCWTGRRDYWGQGTTVTVSSHHHHHH",
    "percentage of input scFv antibody bound": "97%"
  }
]
